targetEntity: Biotinylated CoV2 Spike ECD PreS-AVI protein (SARS-CoV-2, UniProt P0DTC2 14-1208)
experimentalDetails: Octet binning; competitor 19B8

{"columns": ["binder", "binning response"],
 "data": [
  ["11F5 VHH-Fc (Fc fusion) QVQLVESGGGAVQAGDSLRLSCTASGRTFSTYAVGWFRQAPGKERELLAAITGSGRNPYYPDSLKGRFTISREYAKLPVYLQMNSLKPEDTAVYYCAARRGAIATMPLDYDHWGQGTQVTVSS", 0.52],
  ["6A1 VHH-Fc (Fc fusion) QVQLVESGGGLVQAGGSLRLSCTASGNIFSVNVMGWHRQAPGKRRELVAALTNDGRRNYADSVKGRFTISRDNAKNTIYLEMNSLKPEDTAVYYCGTGTLESGFNSWGQGLQVTVSS", 0.4]
]}

Origin of the recorded values: patent US20250382355A1
